test: Subunit association by FPLC on Sephacryl S-100HR; format: physicochemical; conditions: tetramer 44 to 47 mL, dimer 51 to 54 mL, monomer 63 to 66 mL
Would you mind telling me the reported Sephacryl (mL), elution peak position of each entry?
One number for each entry, in mL.

Recorded Sephacryl (mL), elution peak position (molecule TM2 W80K: TM2 in which the 80th tryptophan was replaced with lysine; amino acid sequence SEQ ID NO: 4 (protein, Synthetic TM2 W80K) MSDVQSSLTGTWYNELNSKMELTANKDGTLTGKYLSKVGDVYVPYPLSGRYNLQPPAGQGVALGWAVSWENSKIHSATTKSGQFFSESSPVILTQWLLSSSTARGDVWESTLVGNDSFTKTAPTEQQIAHAQLHCRAPRLK ): 44.4

Here is another molecule to look at.
Recorded Sephacryl (mL), elution peak position (molecule WT-TM2: wild-type tamavidin 2, protein comprising the amino acid sequence SEQ ID NO: 2, from Pleurotus cornucopiae (protein, listed as Pleurotus cornucopiae) MSDVQSSLTGTWYNELNSKMELTANKDGTLTGKYLSKVGDVYVPYPLSGRYNLQPPAGQGVALGWAVSWENSKIHSATTWSGQFFSESSPVILTQWLLSSSTARGDVWESTLVGNDSFTKTAPTEQQIAHAQLHCRAPRLK ): 46.23

All values here come from patent US9611303B2.
